Tested on: U2OS
Experiment: Multiplex assay against U2OS
Type: toxicity, cell-based
Conditions: human, 12 h, 10 µM, compound concentration 10 uM
Record form. Attribute: Population Normal (%). Fill in for each entry.
Answers are plain numbers, in %.

For each entry beneath this line, provide reported Population Normal (%).
1. CN(C)CCOc1ccc(/C(=C(/CCCO)c2ccccc2)c2ccc(O)cc2)cc1
2. Cl.Clc1ccc2nsnc2c1NC1=NCCN1 [TIZANIDINE HYDROCHLORIDE]
3. CC(C)C[C@H](NC(=O)c1cc2ccccc2s1)C(=O)N1CCN(C(=O)[C@H](CO)NS(=O)(=O)c2ccc(Cl)cc2Cl)CC1
4. Cl.Clc1cc2cc(c1)-c1cnn3ccc(nc13)NCCOCCO2

Result:
[100, 97, 100, 100]

----------
Test system: HEK-293T
Assay: Multiplex assay against HEK293T
Type: toxicity, cell-based
Conditions: human, 48 h, 10 µM, compound concentration 10 uM
Non-standard residues stand in square brackets, D forms with d. Residues, ends and D or L forms follow the SMILES beside them.
For each entry below, report its Population Hoechst High Intensity Objects (%) value.
Numbers only, in %.

Molecule	Measured Value
Cc1noc(C)c1-c1cnc2c(-c3ccc(C(=O)O)cc3)cn([C@@H](C)c3ccccn3)c2c1	0
FC(F)(F)c1ccccc1-c1cc(C(F)(F)F)c2[nH]c(C3=NOC4(CCCCC4)C3)nc2c1	0
Br.CS(=O)(=O)Nc1c(O)ccc2c1CCCC2C1=NCCN1 (stereo unspecified)	4
Clc1ccccc1C(c1ccccc1)(c1ccccc1)n1cccn1	0
Cc1onc(-c2ccccc2Cl)c1C(=O)N(C)c1ccc(Cl)cc1	3

List Population Hoechst High Intensity Objects (%) for every entry below, keeping the order given.
1. CC(C)C[C@@H]1NC(=O)[C@@H](C(C)C)NC(=O)[C@@H]2CCCN2C(=O)[C@@H](CC(=O)O)NC(=O)[C@@H](Cc2c[nH]c3ccccc23)NC1=O [BQ-123] (cyclo(L[dW][dD]P[dV]))
2. N[C@@]1(C(=O)O)CO[C@H]2[C@H](C(=O)O)[C@H]21
3. O=C(Nc1ccccc1Br)N[C@@H]1CCN(c2ccc(C(F)(F)F)cn2)C1
4. CC(C)(O)C(=O)N1CCN(c2ccc(C(F)(F)F)c(C3=C(c4c[nH]c5ccccc45)C(=O)NC3=O)c2)CC1
5. CCC(=O)OCC(=O)[C@@]1(OC(=O)CC)[C@@H](C)C[C@H]2[C@@H]3CCC4=CC(=O)C=C[C@]4(C)[C@@]3(Cl)[C@@H](O)C[C@@]21C [BECLOMETHASONE DIPROPIONATE]
6. COCCNc1cc(NC(=O)N2CCCc3cc(CN4CCOCC4=O)c(C=O)nc32)ncc1C#N

Result:
[3, 4, 0, 8, 5, 0]

----------
System: Fibroblast
Test: Multiplex assay against human fibroblast
Type: toxicity, cell-based
Conditions: 12 h, 10 µM, compound concentration 10 uM
Non-standard residues stand in square brackets, D forms with d. Residues, ends and D or L forms follow the SMILES beside them.
Measure: Population Hoechst High Intensity Objects (%)
One number for each entry, in %.

Molecule	Experimental Target	Measured Value
CC(C)C[C@@H]1NC(=O)[C@@H](C(C)C)NC(=O)[C@@H]2CCCN2C(=O)[C@@H](CC(=O)O)NC(=O)[C@@H](Cc2c[nH]c3ccccc23)NC1=O [BQ-123] (cyclo(L[dW][dD]P[dV]))	Fibroblast	2

Provide reported Population Hoechst High Intensity Objects (%) for each item, in the same order as listed.
1. Cl.Clc1ccc2nsnc2c1NC1=NCCN1 [TIZANIDINE HYDROCHLORIDE]
2. CNc1nc(NCc2ncccn2)c2c(-c3ccc4ncccc4c3)c[nH]c2n1
3. COCCNc1nc2ccc(C#CC3(O)CCCCC3)cc2n1-c1ccnc(N)n1
4. O=C(Nc1cc(C(F)(F)F)cc(C(F)(F)F)c1)c1cc(Cl)ccc1O
5. Cl.Clc1cc2cc(c1)-c1cnn3ccc(nc13)NCCOCCO2
6. CN(C)Cc1cccc(NC(=C2C(=O)Nc3cc(C(N)=O)ccc32)c2ccccc2)c1
7. CC(C)CC(=O)Nc1cncc(-c2ccc3[nH]nc(-c4nc5c(-c6cccc(F)c6)cncc5[nH]4)c3c2)c1
8. N[C@@]1(C(=O)O)CO[C@H]2[C@H](C(=O)O)[C@H]21

Result:
[4, 0, 0, 0, 0, 0, 0, 3]

Report Population Hoechst High Intensity Objects (%) for every entry below.
1. CC(C)C[C@H](NC(=O)c1cc2ccccc2s1)C(=O)N1CCN(C(=O)[C@H](CO)NS(=O)(=O)c2ccc(Cl)cc2Cl)CC1
2. FC(F)(F)c1ccccc1-c1cc(C(F)(F)F)c2[nH]c(C3=NOC4(CCCCC4)C3)nc2c1
3. COc1ccc(Cl)cc1[C@]1(F)C(=O)Nc2cc(C(F)(F)F)ccc21

Result:
1. 0
2. 0
3. 0

Could I get Population Hoechst High Intensity Objects (%) for every one of these entries?
1. CC(=O)NCCc1c(Cc2ccccc2)[nH]c2ccccc12
2. CCOc1ccccc1C(=O)NCC1(N2CCN(CC)CC2)CCCCC1

Result:
2
0

Working through the 3 molecules below one at a time, give Population Hoechst High Intensity Objects (%) for each.
1. CN(C)CCOc1ccc(/C(=C(/CCCO)c2ccccc2)c2ccc(O)cc2)cc1
2. C[C@H]1[C@H]2CC[C@H]3[C@@H]4CC=C5C[C@@H](N(C)C)CC[C@]5(C)[C@H]4CC[C@]23CN1C
3. Cl.c1ccc2c(c1)CCC[C@H]2Nc1nc2ccccc2[nH]1

Result:
[0, 3, 0]

Batch lookup, Population Hoechst High Intensity Objects (%) per entry.
1. O=C1c2c(Br)c(Br)c(Br)c(Br)c2C(=O)N1c1ncc[nH]1
2. Cc1noc(C)c1-c1cnc2c(-c3ccc(C(=O)O)cc3)cn([C@@H](C)c3ccccn3)c2c1

Result:
1. 0
2. 0

----------
Tested on: U2OS
Experiment: Multiplex assay against U2OS
Type: toxicity, cell-based
Conditions: human, 48 h, 1 µM, compound concentration 1 uM
Give Population Hoechst High Intensity Objects (%) for every item shown.
Give bare numbers, in %.

Molecule	Measured Value
C[C@H]1[C@H]2CC[C@H]3[C@@H]4CC=C5C[C@@H](N(C)C)CC[C@]5(C)[C@H]4CC[C@]23CN1C	2
CC(C)C[C@H](NC(=O)c1cc2ccccc2s1)C(=O)N1CCN(C(=O)[C@H](CO)NS(=O)(=O)c2ccc(Cl)cc2Cl)CC1	0
CCn1cnc2c(-c3ccc(F)c(-c4ccc(S(=O)(=O)CC)cc4OC)c3)cnnc21	0
Cl.Clc1cc2cc(c1)-c1cnn3ccc(nc13)NCCOCCO2	0
O=C1COc2nccc(-c3ccccc3F)c2CN1Cc1cc(C(F)(F)F)cc(C(F)(F)F)c1	3

Could I get Population Hoechst High Intensity Objects (%) for every one of these entries?
1. CCCC(CCC)C(=O)O
2. CCCOc1ccc2[nH]cc(C3=CCNCC3)c2n1.Cl
3. CNc1nc(NCc2ncccn2)c2c(-c3ccc4ncccc4c3)c[nH]c2n1

Result:
1. 3
2. 2
3. 0

Could you report Population Hoechst High Intensity Objects (%) for every entry in the following list?
1. O=C(Nc1ccccc1Br)N[C@@H]1CCN(c2ccc(C(F)(F)F)cn2)C1
2. Cc1noc(C)c1-c1cnc2c(-c3ccc(C(=O)O)cc3)cn([C@@H](C)c3ccccn3)c2c1

Result:
[0, 0]

----------
Test system: HEK-293T
Experiment: Multiplex assay against HEK293T
Format: toxicity, cell-based
Settings: human, 12 h, 10 µM, compound concentration 10 uM
Measure: Population Normal (%)
One number for each entry, in %.

Some compounds with known Population Normal (%) results, for comparison:
Smiles Text	Population Normal (%)
CC(C)CC(=O)Nc1cncc(-c2ccc3[nH]nc(-c4nc5c(-c6cccc(F)c6)cncc5[nH]4)c3c2)c1	100
COCCNc1nc2ccc(C#CC3(O)CCCCC3)cc2n1-c1ccnc(N)n1	100
CCCC(CCC)C(=O)O	93
CN(C)CCOc1ccc(/C(=C(/CCCO)c2ccccc2)c2ccc(O)cc2)cc1	100

Now look at this entry.
Problem: Read off the recorded Population Normal (%) for Cc1noc(C)c1-c1cnc2c(-c3ccc(C(=O)O)cc3)cn([C@@H](C)c3ccccn3)c2c1
Result: 100

----------
Test system: U2OS
Test: Multiplex assay against U2OS
Format: toxicity, cell-based
Details: human, 12 h, 10 µM, compound concentration 10 uM
Measure: Population Normal (%)
Numbers only, in %.

These recorded examples may help you get a feel for the data.
Smiles Text	Experimental Target	Reading Unit	Measured Value
Clc1ccccc1C(c1ccccc1)(c1ccccc1)n1cccn1	U2OS	%	100
FC(F)(F)c1ccccc1-c1cc(C(F)(F)F)c2[nH]c(C3=NOC4(CCCCC4)C3)nc2c1	U2OS	%	100
Cl.c1ccc2c(c1)CCC[C@H]2Nc1nc2ccccc2[nH]1	U2OS	%	100
Cc1ccc(F)cc1C(=O)Nc1ccc(C(=O)N2Cc3cccn3Cc3ccccc32)c(Cl)c1	U2OS	%	94

// next entry
Problem: Output measured Population Normal (%) for this item: CC(C)CC(=O)Nc1cncc(-c2ccc3[nH]nc(-c4nc5c(-c6cccc(F)c6)cncc5[nH]4)c3c2)c1
Result: 100
